Biological target: UniProt P63073
Experiment: fluorescence anisotropy (FA) competition assay with eIF4E
Format: binding
Details: Table S2; calculated from EC50
Excerpt: The KD values determined from the high-throughput assay were in qualitative agreement with data from time-synchronized fluorescence quenching titration, justifying the use of the former for evaluation of the whole set of caps. […] To additionally verify the binding affinity data (especially for 1q and 1r, as mentioned above), we determined the binding affinities for all analogs using another independent assay, based on fluorescence anisotropy. […]
# Kd per entry
experimental readout: Kd (nM)

{"molecule": "Nc1nc(O)c2c(n1)n([C@@H]1O[C@H](COP(=O)(O)OP(=O)([O-])OP(=O)(O)OC[C@H]3O[C@@H](n4cnc5c(=O)[nH]c(N)nc54)[C@H](O)[C@@H]3O)[C@@H](O)[C@H]1O)c[n+]2Cc1ccc(F)cc1", "experimental value": 64}
{"molecule": "Nc1nc(O)c2c(n1)n([C@@H]1O[C@H](COP(=O)(O)OP(=O)([O-])OP(=O)(O)OC[C@H]3O[C@@H](n4cnc5c(=O)[nH]c(N)nc54)[C@H](O)[C@@H]3O)[C@@H](O)[C@H]1O)c[n+]2Cc1ccccc1", "experimental value": 74}

* * *

biological target: eukaryotic translation initiation factor 4E (eIF4E) (Mus musculus); assay: pyrene-probe fluorescent competitive-binding assay (PyFLINT-B) for cap analog-eIF4E; conditions: Table S2
Sequence (P63073 whole entry): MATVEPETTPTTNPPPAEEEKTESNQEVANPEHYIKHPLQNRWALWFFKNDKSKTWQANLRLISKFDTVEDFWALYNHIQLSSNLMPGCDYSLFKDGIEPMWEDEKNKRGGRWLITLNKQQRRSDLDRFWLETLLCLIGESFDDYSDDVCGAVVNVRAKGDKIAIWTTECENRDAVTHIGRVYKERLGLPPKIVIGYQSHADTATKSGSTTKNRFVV
# EC50 per entry
experimental readout: EC50 (µM)

{"compound": "Cn1c[n+]([C@@H]2O[C@H](COP(=O)(O)OP(=O)([O-])OP(=O)(O)OC[C@H]3O[C@@H](n4cnc5c(=O)[nH]c(N)nc54)[C@H](O)[C@@H]3O)[C@@H](O)[C@H]2O)c2nc(N)[nH]c(=O)c21 [m^7GpppG, reference compound]", "experimental value": 2.7}
{"compound": "Cc1ccc(C[n+]2cn([C@@H]3O[C@H](COP(=O)(O)OP(=O)([O-])OP(=O)(O)OC[C@H]4O[C@@H](n5cnc6c(=O)[nH]c(N)nc65)[C@H](O)[C@@H]4O)[C@@H](O)[C@H]3O)c3nc(N)nc(O)c32)cc1 [1d, 4-MeBn^7GpppG]", "experimental value": 5.6}
{"compound": "Nc1nc(O)c2c(n1)n([C@@H]1O[C@H](COP(=O)(O)OP(=O)([O-])OP(=O)(O)OC[C@H]3O[C@@H](n4cnc5c(=O)[nH]c(N)nc54)[C@H](O)[C@@H]3O)[C@@H](O)[C@H]1O)c[n+]2Cc1ccc(F)cc1 [1g, 4-F-Bn^7GpppG]", "experimental value": 3.1}
{"compound": "Nc1nc(O)c2c(n1)n([C@@H]1O[C@H](COP(=O)(O)OP(=O)([O-])OP(=O)(O)OC[C@H]3O[C@@H](n4cnc5c(=O)[nH]c(N)nc54)[C@H](O)[C@@H]3O)[C@@H](O)[C@H]1O)c[n+]2Cc1cccc2ccccc12 [1o, α-Naphm^7GpppG]", "experimental value": 35}

* * *

biological target: hDcpS (Homo sapiens, UniProt Q96C86); type: in vitro ADME; details: 100 μM compound, 20 nM hDcpS, 37 °C, 1 h
Sequence (Q96C86 whole entry): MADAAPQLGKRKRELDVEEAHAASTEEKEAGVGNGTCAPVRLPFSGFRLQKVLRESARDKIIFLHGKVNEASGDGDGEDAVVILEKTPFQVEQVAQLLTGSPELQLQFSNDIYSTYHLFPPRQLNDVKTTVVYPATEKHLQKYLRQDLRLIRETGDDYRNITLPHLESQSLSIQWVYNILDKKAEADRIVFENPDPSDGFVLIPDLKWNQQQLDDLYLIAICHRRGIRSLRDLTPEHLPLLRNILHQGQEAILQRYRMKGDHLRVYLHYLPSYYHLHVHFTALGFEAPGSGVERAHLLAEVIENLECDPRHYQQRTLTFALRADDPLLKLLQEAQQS
experimental readout: hDcpS Assay: fraction of the cap remaining after 1 h incubation with DcpS

{"molecule": "Nc1nc(O)c2c(n1)n([C@@H]1O[C@H](COP(=O)(O)OP(=O)([O-])OP(=O)(O)OC[C@H]3O[C@@H](n4cnc5c(=O)[nH]c(N)nc54)[C@H](O)[C@@H]3O)[C@@H](O)[C@H]1O)c[n+]2Cc1ccc([N+](=O)[O-])cc1", "assayed target": "hDcpS (Homo sapiens, UniProt Q96C86)", "experimental value": 0.75}
{"molecule": "Cn1c[n+]([C@@H]2O[C@H](COP(=O)(O)OP(=O)([O-])OP(=O)(O)OC[C@H]3O[C@@H](n4cnc5c(=O)[nH]c(N)nc54)[C@H](O)[C@@H]3O)[C@@H](O)[C@H]2O)c2nc(N)[nH]c(=O)c21 [m^7GpppG, reference compound]", "assayed target": "hDcpS (Homo sapiens, UniProt Q96C86)", "experimental value": 0.49}
{"molecule": "Nc1nc(O)c2c(n1)n([C@@H]1O[C@H](COP(=O)(O)OP(=O)([O-])OP(=O)(O)OC[C@H]3O[C@@H](n4cnc5c(=O)[nH]c(N)nc54)[C@H](O)[C@@H]3O)[C@@H](O)[C@H]1O)c[n+]2Cc1ccc2ccccc2c1", "assayed target": "hDcpS (Homo sapiens, UniProt Q96C86)", "experimental value": 0.84}
{"molecule": "Nc1nc(O)c2c(n1)n([C@@H]1O[C@H](COP(=O)(O)OP(=O)([O-])OP(=O)(O)OC[C@H]3O[C@@H](n4cnc5c(=O)[nH]c(N)nc54)[C@H](O)[C@@H]3O)[C@@H](O)[C@H]1O)c[n+]2Cc1ccc(F)c(F)c1", "assayed target": "hDcpS (Homo sapiens, UniProt Q96C86)", "experimental value": 0.70}
